# SYSTEM: GST-Syk Full Protein (human) (Homo sapiens, UniProt P43405)
# ASSAY_COMMENT: Syk kinase inhibition test (HTRF method)
# Assay type: biochemical
# CONDITION_CONTEXT: HTRF, 100 μM ATP, 30 min room temperature, average; read-out: sykHTRF ave IC50
OBSERVATION_TYPE: IC50

Req: Could you tell me which IC50 is on file for Cc1ccnc(Nc2cccc(-c3cnc(C4CCCC(C(=O)O)C4)s3)n2)c1 (stereo not shown) ?
Resp: 100 to 1000 nM

Req: Do the same for O=C(O)Cc1ccnc(Nc2cccc(-c3cnc([C@@H]4CCC(=O)N4)s3)n2)c1 please
Resp: 100 to 1000 nM

Req: What about this compound? Cc1ccnc(Nc2cccc(-c3cnc(CNC(=O)NCC(=O)O)s3)n2)c1
Resp: 100 to 1000 nM

Req: // query: Cc1ccnc(Nc2cccc(-c3cnc(CCc4cccc(C(=O)N5CCC(O)CC5)c4)s3)n2)c1
Resp: 100 to 1000 nM

Req: Again, but for Cc1ccnc(Nc2cccc(-c3cnc(C(C)(C)N)s3)n2)c1
Resp: 100 to 1000 nM

Req: Entry Cc1ccnc(Nc2cccc(-c3cnc(C4CCN(C(=O)NCCO)CC4)s3)n2)c1 please
Resp: 100 to 1000 nM

Req: Likewise for Cc1ccnc(Nc2cccc(-c3cnc([C@H]4CC[C@H](C(=O)N5CCNCC5)CC4)s3)n2)c1 ?
Resp: < 100 nM

Req: Then this compound: Cc1ccnc(Nc2cccc(-c3cnc(C4CCC(=NO)CC4)s3)n2)c1 (stereo not shown)
Resp: < 100 nM

Req: Can you handle CC(=O)N[C@@H](C)c1nc(N)c(-c2cccc(Nc3cc(C)ccn3)n2)s1 next?
Resp: > 1000 nM

Req: Also Cc1ccnc(Nc2cccc(-c3cnc([C@@H](O)CN(C)C)s3)n2)c1 , if possible.
Resp: 100 to 1000 nM

Req: Could you do the same for CC(=O)N[C@@H](Cc1ccc(O)cc1)c1ncc(-c2cccc(Nc3cc(C)ccn3)n2)s1 , please?
Resp: 100 to 1000 nM

Req: What would you report for Cc1ccnc(Nc2cccc(-c3cnc([C@H](CCCCNC(=O)OC(C)(C)C)NC(=O)OCc4ccccc4)s3)n2)c1 ?
Resp: > 1000 nM

Req: Try this compound next: COC(=O)[C@H]1CC[C@H](c2ncc(-c3cccc(Nc4cc(Cl)ccn4)n3)s2)CC1
Resp: 100 to 1000 nM

* * *

# SYSTEM: UniProtKB P43405
# ASSAY_COMMENT: Syk kinase inhibition test (HTRF method)
# Format: biochemical
# CONDITION_CONTEXT: Tables 2-x, thiophene compounds B; read-out: sykHTRK ave IC50
// reported IC50 per item

Guide cases for IC50, answers given:
# CPD_SMILES, IC50
records = [
    ("Cc1ccnc(Nc2cccc(-c3ccc(C(=O)C(C)C)s3)n2)c1", "100 to 1000 nM"),
    ("Cc1ccnc(Nc2cccc(-c3ccc(CNCCC(=O)O)s3)n2)c1", "100 to 1000 nM"),
    ("CC(=NO)c1ccc(-c2cccc(Nc3cc(C)ccn3)n2)s1", "< 100 nM"),
]

Req: For the molecule Cc1ccnc(Nc2cccc(-c3ccc(NC(=O)OC(C)(C)C)s3)n2)c1 , what IC50 is on record?
Resp: 100 to 1000 nM

Req: And COC(=O)c1ccc(-c2cccc(Nc3cc(C)ccn3)n2)s1 ?
Resp: 100 to 1000 nM
